Measured values drawn from PubChem BioAssay (NCI) for this set.

system: ACHN renal; assay: NCI tumour cell line growth inhibition, 48 h
TGI overview
Parameter: TGI

| Compound | Parameter | Result |
| --- | --- | --- |
| NC(N)=NS(=O)(=O)c1ccc(NC(=O)c2ccc3nc4ccccc4c(Nc4ccc(S(=O)(=O)N=C(N)N)cc4)c3c2)cc1 | TGI | > 100 µM |
| CCOC(=O)C1=C(OC(OCC)C(CC)[Se]c2ccccc2)CCCC1 (stereo not given) | TGI | 82.2 µM |
| CCC(C(=O)c1ccc(OC)c(OC)c1)N(C(=O)C(F)(F)F)C(C)c1ccccc1 (stereo not given) | TGI | > 100 µM |
| O=C(N/N=C/c1ccccc1O)c1ccccc1Nc1ccnc(C(F)(F)F)c1 | TGI | > 63.5 µM |
| NC(=O)c1cc2ccccc2o/c1=N/O | TGI | > 100 µM |
| COc1ccc(-c2c(C#N)c(N)nc3c2CCS(=O)(=O)c2ccccc2-3)cc1 | TGI | > 100 µM |
| N#CSc1c[nH]c2cccc(/C=C/C(=O)/C=C(/C=C/c3cccc4[nH]cc(SC#N)c34)OB(F)F)c12 | TGI | 1.72 µM |
| FC(F)(F)c1cccc(Nc2nccc(-c3cnn4nc(-c5ccccc5)ccc34)n2)c1 | TGI | > 18 µM |
| CN1CCN(C)C12C=c1ccccc1=CC21CC1 | TGI | > 100 µM |
| N#Cc1cc([N+](=O)[O-])ccc1NC(=O)C(=O)Nc1n[nH]c(N)n1 | TGI | > 100 µM |

====

tested on: UO-31 renal; test: NCI tumour cell line growth inhibition, 48 h; in the data active = GI50 below about 0.43 µM; inactive = the rest
Outcomes: true = active, false = inactive

| Compound | Class Label |
| --- | --- |
| OCc1c[nH]c2ccccc12 | false |
| Nc1nc(Cl)c2ncn(Cc3ccc(C45CC6CC(CC(C6)C4)C5)c(O)c3)c2n1 | false |
| C=CCCCCCCCCC(=O)[O][Sn]([CH2]CCC)([CH2]CCC)[CH2]CCC | true |
| CC/C(=C(/c1ccc(O)cc1)c1ccc(OCCNC)cc1)c1ccccc1 | false |
| CCOc1cc2c(Cl)ncnc2c(OCC)c1OCC | false |
| Oc1ccc(CN2CCC(N3CCCCC3)CC2)c2cccnc12 | false |
| CC(=O)OC[C@]1(C)C=C2C(=O)[C@](C)(O)C3(CC3)C(C)=C2[C@H]1O | true |
| C[C@@H]1OC(O)[C@@H](F)[C@H](O)[C@@H]1O (stereo not given in full) | false |
| N#CSc1c[nH]c2cccc(/C=C/C(=O)/C=C(/C=C/c3cccc4[nH]cc(SC#N)c34)OB(F)F)c12 | true |
| COC(=O)[C@]12CC[C@@H](C)[C@H](C)[C@@H]1C1=CC[C@@H]3[C@@]4(C)C/C(=N\O)[C@H](O)[C@@]5(C)COC(=C45)C[C@@]3(C)[C@]1(C)CC2 | false |

====

tested on: HL-60(TB) leukemia; assay: NCI tumour cell line growth inhibition, 48 h
GI50 overview

| Record Smiles | Tgt | GI50 |
| --- | --- | --- |
| CC[CH2][Sn]([CH2]CC)([O]C(=O)c1cccnc1SC)[O][Sn]([CH2]CC)([CH2]CC)[O]C(=O)c1cccnc1SC | HL-60(TB) leukemia | 0.26 µM |
| CC(C)c1nc(CN(C)C(=O)N[C@H](C(=O)N[C@@H](Cc2ccccc2)C[C@H](O)[C@H](Cc2ccccc2)NC(=O)OCc2cncs2)C(C)C)cs1 | HL-60(TB) leukemia | 12.2 µM |
| Oc1ccc2ccccc2c1N=Nc1nccs1 | HL-60(TB) leukemia | 0.267 µM |
| Oc1ccc(CN2CCC(N3CCCCC3)CC2)c2cccnc12 | HL-60(TB) leukemia | 6.86 µM |
